# Tested on: Vero cells
# ASSAY_INFO: MTT cytotoxicity assay on Vero cells
# Type: cell-based
# TEST_CONTEXT: Chlorocebus sabaeus, 72 h continuous exposure, triplicate, range 0.05 to 50 µM
QUANTITY_KIND: pIC50
In simple prose, pIC50 is minus the logarithm base ten of a concentration in moles per litre.

Below, 2 compounds whose answers are already recorded.
MOLECULAR_STRING	pIC50
CC(C)n1cnc2c(NCc3ccccc3)nc(NCc3ccccc3)nc21	4.70
CCCCCn1cnc2c(NCc3ccccc3)nc(NCc3ccccc3)nc21	5.60

So, CC(C)CCn1cnc2c(NCc3ccccc3)nc(NCc3ccccc3)nc21 ? Its pIC50 was 5.60
